- Experimental System: Mitogen-activated protein kinase kinase kinase kinase 1 (Homo sapiens, UniProt Q92918)
- Sequence (Q92918 whole entry): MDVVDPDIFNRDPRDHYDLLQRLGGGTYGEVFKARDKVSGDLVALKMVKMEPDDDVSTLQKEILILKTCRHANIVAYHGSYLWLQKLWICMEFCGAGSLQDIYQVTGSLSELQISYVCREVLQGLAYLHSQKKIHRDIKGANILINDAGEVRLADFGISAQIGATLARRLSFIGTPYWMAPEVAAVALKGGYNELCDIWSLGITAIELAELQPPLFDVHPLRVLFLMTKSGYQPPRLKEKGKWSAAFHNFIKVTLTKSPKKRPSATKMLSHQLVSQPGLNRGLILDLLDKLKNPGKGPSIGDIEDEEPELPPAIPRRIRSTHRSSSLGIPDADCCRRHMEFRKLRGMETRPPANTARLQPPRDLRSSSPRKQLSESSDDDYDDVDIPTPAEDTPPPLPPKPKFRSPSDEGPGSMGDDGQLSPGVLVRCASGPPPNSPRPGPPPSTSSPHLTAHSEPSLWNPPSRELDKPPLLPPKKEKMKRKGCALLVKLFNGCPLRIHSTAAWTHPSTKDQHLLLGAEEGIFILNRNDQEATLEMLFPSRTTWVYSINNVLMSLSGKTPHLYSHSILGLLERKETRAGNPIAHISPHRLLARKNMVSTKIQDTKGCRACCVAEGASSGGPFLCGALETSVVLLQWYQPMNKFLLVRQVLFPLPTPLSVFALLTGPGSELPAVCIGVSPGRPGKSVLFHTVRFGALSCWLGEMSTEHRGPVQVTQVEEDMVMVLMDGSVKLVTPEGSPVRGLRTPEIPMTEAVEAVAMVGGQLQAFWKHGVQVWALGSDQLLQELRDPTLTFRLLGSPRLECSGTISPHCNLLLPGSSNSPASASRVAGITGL
- Test Summary: Binding Assay: Lanth: For the binding assay, 4 ul 2×HPK1 and Eu-anti-GST antibody were added to each well of the assay plate using a Multidrop reagent dispenser. The solutions were incubated in a 23 C incubator for 1 h. To each well of the assay plate was added 4 ul 2× Tracer-222 using a Multidrop reagent dispenser. The solutions were again incubated in a 23 C incubator for 1 h. The results of the assay were read using an Envision plate reader with the following parameters: TR_FRET, 340ex/615 and 665em; 100 usec Delay; and 200 usec integration.
Outcome Measure: Ki (nM)

P = Cc1ccncc1-c1cc2cc(NC(=O)[C@@H]3[C@@H](C)[C@H]3CC#N)ncc2c(N)n1
Q = Cc1ccncc1-c1cc2cc(NC(=O)[C@H]3[C@H](C)[C@@H]3CC#N)ncc2c(N)n1
R = Cc1ccncc1-c1cc2cc(NC(=O)C(C)C)ncc2c(N)n1
In: Order the records so the highest Ki appears first and the lowest last. # the answer lists labels in the order requested
Out: R, Q, P
(R: 29.8 nM, Q: 6.01 nM, P: 0.837 nM)

a = Cc1cc(-n2cccn2)ncc1-c1cc2cc(NC(=O)[C@H]3C[C@@H]3c3cnn(C)c3)ncc2c(N)n1
b = Cc1ccncc1-c1cc2cc(NCC3CC3(F)F)ncc2c(N)n1 (racemic)
c = Cc1ccncc1-c1cc2cc(NC(=O)[C@H]3C[C@@H]3CC#N)ncc2c(N)n1 (racemic)
In: Sort entries by Ki from minimum to maximum value. # the answer lists labels in the order requested
Out: c, a, b

A = Cc1ccnc(-c2ccccc2)c1-c1cc2cc(NC(=O)[C@H]3C[C@@H]3CC#N)ncc2c(N)n1 (racemic)
B = CC(=O)OC[C@]1(C)C[C@@H]1C(=O)Nc1cc2cc(-c3cnccc3C)nc(N)c2cn1 (racemic)
C = N#CC[C@H]1C[C@@H]1C(=O)Nc1cc2cc(-c3cnccc3CCO)nc(N)c2cn1 (racemic)
In: Rank the 3 compounds: largest Ki first, smallest last. # the answer lists labels in the order requested
Out: B, C, A
(B: 14.6 nM, C: 0.501 nM, A: 0.051 nM)

---

- Experimental System: Mitogen-activated protein kinase kinase kinase kinase 1 (Homo sapiens, UniProt Q92918)
- Test Summary: Binding Assay: Lanth: For the binding assay, 4 ul 2×HPK1 and Eu-anti-GST antibody were added to each well of the assay plate using a Multidrop reagent dispenser. The solutions were incubated in a 23 C incubator for 1 h. To each well of the assay plate was added 4 ul 2× Tracer-222 using a Multidrop reagent dispenser. The solutions were again incubated in a 23 C incubator for 1 h. The results of the assay were read using an Envision plate reader with the following parameters: TR_FRET, 340ex/615 and 665em; 100 usec Delay; and 200 usec integration.
pKi: −log10 of the molar value.
Outcome Measure: pKi

Field: example entries. Status: answers known.
{"Compound": "Cc1ccncc1-c1cc2cc(NC(=O)[C@@H]3C[C@]34CCNC4)ncc2c(N)n1 (racemic)", "Outcome Measure": "pKi", "Numeric Readout": 8.17}
{"Compound": "Cc1ccncc1-c1nc(N)c2cnc(NC(=O)[C@@H]3C[C@H]3c3cn[nH]c3)cc2c1F (racemic)", "Outcome Measure": "pKi", "Numeric Readout": 9.72}
{"Compound": "Cc1[nH]ncc1-c1cc2cc(NC(=O)[C@@H]3C[C@H]3C(F)(F)F)ncc2c(N)n1 (racemic)", "Outcome Measure": "pKi", "Numeric Readout": 7.80}
{"Compound": "Cc1ncc(-c2cc3cc(NC(=O)[C@@H]4C[C@H]4C#N)ncc3c(N)n2)n1C (relative stereo)", "Outcome Measure": "pKi", "Numeric Readout": 7.72}
{"Compound": "C[C@@H]1C[C@H]1C(=O)Nc1cc2cc(-c3cnn(C)c3)nc(N)c2cn1 (racemic)", "Outcome Measure": "pKi", "Numeric Readout": 8.73}
{"Compound": "CCOc1ccncc1-c1cc2cc(NC(=O)[C@H]3C[C@@H]3C#N)ncc2c(N)n1 (racemic)", "Outcome Measure": "pKi", "Numeric Readout": 9.01}

I = Cc1c[nH]c(=O)cc1-c1cc2cc(NC(=O)[C@@H]3C[C@@H]3F)ncc2c(N)n1 (racemic)
II = Cc1cc(C(C)(C)O)ncc1-c1cc2cc(NC(=O)[C@@H]3C[C@@H]3F)ncc2c(N)n1 (racemic)
III = Cc1ccncc1-c1cc2cc(NC(=O)C3C[C@@H]3C(F)(F)F)ncc2c(N)n1 (some centres not stated)
In: Sort entries by pKi from minimum to maximum value. # the answer lists labels in the order requested
Out: II, I, III
(II: 7.38, I: 8.19, III: 8.85)

a = Cc1ccncc1-c1nc(N)c2cnc(NC(=O)[C@H]3C[C@@H]3C#N)cc2c1F (racemic)
b = COC1CN([C@H]2C[C@@H]3[C@H](C2)[C@H]3C(=O)Nc2cc3cc(-c4cnccc4C)nc(N)c3cn2)C1
In: From the items above, decide which of a and b has the lower pKi reading. Respond with the label that goes with your answer.
Out: a

P = Cc1ccncc1-c1cc2cc(NC(=O)[C@H]3[C@@H]4COC[C@@H]43)ncc2c(N)n1 (single isomer, unassigned)
Q = CCC1CCCN1c1cc2cc(NC(=O)[C@H]3C[C@H]3F)ncc2c(N)n1 (mixture of isomers)
R = Cc1ccncc1-c1cc2cc(NC(=O)[C@@H]3C[C@H]3C(F)(F)F)ncc2c(N)n1 (racemic)
S = Cc1cc(C)c(-c2cc3cc(NC(=O)[C@@H]4C[C@H]4C#N)ncc3c(N)n2)cc1C(N)=O (racemic)
In: Sort entries by pKi from minimum to maximum value. # the answer lists labels in the order requested
Out: Q, S, P, R
(Q: 6.76, S: 7.05, P: 8.31, R: 8.85)

I = Cc1ccncc1-c1cc2cc(NC(=O)[C@@H]3[C@H](C)[C@H]3CC#N)ncc2c(N)n1
II = CCc1ccncc1-c1cc2cc(NC(=O)[C@@H]3C[C@H]3C(=O)C3CC(O)C3)ncc2c(N)n1 (mixture of isomers)
In: From the items above, decide which of I and II has the lower pKi reading. Respond with the label that goes with your answer.
Out: II
(II: 6.79, I: 9.73)

Origin of the recorded values: ChEMBL document CHEMBL5728527
